Source listed as PubChem BioAssay (EPA / NIEHS).

assay: ATG_TA_CIS: Attagene CIS-FACTORIAL HepG2 Assay for human TA Basal Promoter (AID 2282964); details: HepG2 Attagene CIS-factorial TA basal promoter reporter; actives raise or lower the signal
Activity calls are given as the source filed them. How the source made its calls: active means hit-call score of the fitted dose curve at least 0.9, where 1 is the maximum; inactive means score below 0.9.
Entry note: the call must match one of active, inactive

Recorded results for 4 molecules are shown here.
> print(dat)
                                molecule     class
1                     CCCCCCOc1ccc(N)cc1  inactive
2  CCCCC1C(=O)N(c2ccccc2)N(c2ccccc2)C1=O  inactive
3                             CCCCC(=O)O  inactive
4     CCCC(C)C(=O)OCC (stereo not given)  inactive

Q: I'd appreciate the recorded outcome for CCN(CC)c1cccc(C)c1 from this test.
Ans: inactive

Q: Given Nc1ncnc2nc[nH]c12 , state the outcome it received in this test.
Ans: inactive

Q: Record lookup: outcome of this test for Cc1cc(C)n(CO)n1 ?
Ans: inactive

Q: # lookup: test call for C[Si]1(C)O[Si](C)(C)O[Si](C)(C)O[Si](C)(C)O[Si](C)(C)O1
Ans: inactive

###

assay: BSK_3C_VCAM1: BioMAP Diversity Plus: 3C Assay for Vascular cell adhesion molecule 1 (VCAM1) Biomarker Activity (AID 2282999); details: BioMAP 3C HUVEC, VCAM1 ELISA, cytokine-stimulated; actives raise or lower the signal
Calls of active or inactive are those of the source. Rule for the calls: active = hit-call score of the fitted dose curve at least 0.9, where 1 is the maximum; inactive = score below 0.9.
Log the outcome using a class from active, inactive

See these solved cases before continuing.
> print(dat)
                         structure.smiles     class
1  O=C(Cl)c1c(Cl)c(Cl)c(C(=O)Cl)c(Cl)c1Cl  inactive
2                        O=C1CCCCCCCCCCC1  inactive

Q: Short answer needed: outcome of this test for Nc1ccc(C(=O)O)cc1 ?
Ans: inactive

Q: Called result for Nc1nc(N)nc(-c2ccccc2)n1
Ans: inactive

Q: Recorded call for COC(OC)(C(=O)c1ccccc1)c1ccccc1 ?
Ans: inactive

Q: Query: recorded result category for CC=C(C)C=CC=C(C)C in this test
Ans: active

Q: Record lookup: outcome of this test for CC(C)c1cccc(C(C)C)c1N ?
Ans: inactive

Q: What classification did Cc1ccc([N+](=O)[O-])cc1N end up with in this test?
Ans: inactive

###

test: CCTE_Shafer_MEA_acute_synchrony_index: CCTE's Neural Acute Assay for Synchrony, Shafer Lab (AID 2284027);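 further: network synchrony index of spontaneous spiking in primary rat cortical neurons on MEAs; fitted for loss of signal so actives lower synchrony relative to DMSO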
Calls of active or inactive are those of the source. The calls were made as follows: active = hit-call score of the fitted dose curve at least 0.9, where 1 is the maximum; inactive = score below 0.9.
Hi! Could you answer with just one of these? active, inactive

> print(dat)
      structure.smiles   class
1         Nc1cccc(N)n1  active
2  Oc1ccccc1Cc1ccccc1O  active

Q: Recorded test call requested for CC1(C)CC(O)CC(C)(C)N1[O]
Ans: inactive

Q: # lookup: test call for Nc1nc(N)nc(-c2ccccc2)n1
Ans: inactive

Q: Please let me know the test result on file for Cc1c(C(=O)c2c[nH]n(C)c2=O)ccc(S(C)(=O)=O)c1C1=NOCC1 .
Ans: inactive

Q: # lookup: test call for CC(C)C(=O)OCCc1ccccc1
Ans: inactive

Q: For CC(CCC(=O)O)(c1ccc(O)cc1)c1ccc(O)cc1 , which call appears in the assay record?
Ans: inactive
